assay: in vitro
protocol conditions: pig, Peff, permeability coefficient for fluorescein
value type: Papp A→B at 90 min (×10⁻⁶ cm/s)
Give the quantity in ×10⁻⁶ cm/s, number only.

Papp A→B at 90 min lookup needed for O=C1OC2(c3ccc(O)cc3Oc3cc(O)ccc32)c2ccccc21 [fluorescein, reference compound] , thanks.
0.29

====

assay: in vitro
protocol conditions: pig, Papp, permeability coefficient for fluorescein
value type: Papp A→B at 90 min (×10⁻⁶ cm/s)
Give the quantity in ×10⁻⁶ cm/s, number only.

Papp A→B at 90 min lookup needed for O=C1OC2(c3ccc(O)cc3Oc3cc(O)ccc32)c2ccccc21 [fluorescein, reference compound] , thanks.
0.28
